Target: Carbonic anhydrase 1 (Homo sapiens)
Sequence (P00915 whole entry): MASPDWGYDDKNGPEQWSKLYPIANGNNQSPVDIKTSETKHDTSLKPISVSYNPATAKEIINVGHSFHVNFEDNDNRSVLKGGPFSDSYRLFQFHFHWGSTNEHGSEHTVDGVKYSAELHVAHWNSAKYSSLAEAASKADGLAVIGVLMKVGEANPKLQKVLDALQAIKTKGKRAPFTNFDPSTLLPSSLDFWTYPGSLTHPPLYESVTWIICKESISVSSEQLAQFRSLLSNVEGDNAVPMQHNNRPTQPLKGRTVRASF

structure_smiles: COc1ccc(-c2cn(-c3ccc(S(N)(=O)=O)cc3)nn2)cc1
unit_spec: µM
Ki: 2.2
//
structure_smiles: Cc1ccc(-c2cn(-c3ccc(S(N)(=O)=O)cc3)nn2)cc1
unit_spec: µM
Ki: 2.1
//
structure_smiles: NS(=O)(=O)c1ccc(-n2cc(-c3ccc(F)cc3)nn2)cc1
unit_spec: µM
Ki: 4.6
//
structure_smiles: NS(=O)(=O)c1ccc(-n2cc(-c3ccccc3)nn2)cc1
unit_spec: µM
Ki: 5.1
